Target: CYP2C9 (Homo sapiens, UniProt P11712)
Sequence (P11712 whole entry, one chain of several): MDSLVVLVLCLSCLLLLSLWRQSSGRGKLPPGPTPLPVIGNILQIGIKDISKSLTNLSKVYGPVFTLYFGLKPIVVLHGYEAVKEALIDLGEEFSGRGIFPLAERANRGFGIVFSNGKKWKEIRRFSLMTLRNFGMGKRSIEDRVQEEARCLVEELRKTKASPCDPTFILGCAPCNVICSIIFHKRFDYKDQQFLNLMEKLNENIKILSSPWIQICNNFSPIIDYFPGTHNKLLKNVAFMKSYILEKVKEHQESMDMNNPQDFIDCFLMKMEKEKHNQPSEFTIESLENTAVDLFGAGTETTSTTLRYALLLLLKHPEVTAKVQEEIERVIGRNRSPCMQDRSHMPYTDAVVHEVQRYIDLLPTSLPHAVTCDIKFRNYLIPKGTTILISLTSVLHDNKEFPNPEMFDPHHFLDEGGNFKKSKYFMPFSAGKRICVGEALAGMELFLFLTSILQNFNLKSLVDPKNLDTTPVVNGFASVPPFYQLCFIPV
Assay: in vitro
reportedMetric: activity at 0.25 µM

// query What is its activity at 0.25 µM for CYP2C9 (Homo sapiens, UniProt P11712)? Entry: Nc1ccc(S(=O)(=O)Nc2ccnn2-c2ccccc2)cc1
// result ~50%

---

Target: UniProt:P08684
Sequence (P08684 2-503): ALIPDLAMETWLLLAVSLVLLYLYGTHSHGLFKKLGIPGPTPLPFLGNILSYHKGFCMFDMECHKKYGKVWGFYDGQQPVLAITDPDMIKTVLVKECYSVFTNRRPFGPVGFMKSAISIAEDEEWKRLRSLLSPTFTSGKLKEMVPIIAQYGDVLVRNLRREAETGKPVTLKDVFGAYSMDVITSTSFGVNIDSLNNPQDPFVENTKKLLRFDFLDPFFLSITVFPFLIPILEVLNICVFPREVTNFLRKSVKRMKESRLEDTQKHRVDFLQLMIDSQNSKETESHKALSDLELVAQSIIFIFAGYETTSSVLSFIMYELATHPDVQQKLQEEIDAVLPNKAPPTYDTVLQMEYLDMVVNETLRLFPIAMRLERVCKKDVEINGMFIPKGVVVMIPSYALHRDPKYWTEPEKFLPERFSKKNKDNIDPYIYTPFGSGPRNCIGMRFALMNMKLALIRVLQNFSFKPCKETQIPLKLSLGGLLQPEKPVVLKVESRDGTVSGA
Sequence (P16435 2-677 partner): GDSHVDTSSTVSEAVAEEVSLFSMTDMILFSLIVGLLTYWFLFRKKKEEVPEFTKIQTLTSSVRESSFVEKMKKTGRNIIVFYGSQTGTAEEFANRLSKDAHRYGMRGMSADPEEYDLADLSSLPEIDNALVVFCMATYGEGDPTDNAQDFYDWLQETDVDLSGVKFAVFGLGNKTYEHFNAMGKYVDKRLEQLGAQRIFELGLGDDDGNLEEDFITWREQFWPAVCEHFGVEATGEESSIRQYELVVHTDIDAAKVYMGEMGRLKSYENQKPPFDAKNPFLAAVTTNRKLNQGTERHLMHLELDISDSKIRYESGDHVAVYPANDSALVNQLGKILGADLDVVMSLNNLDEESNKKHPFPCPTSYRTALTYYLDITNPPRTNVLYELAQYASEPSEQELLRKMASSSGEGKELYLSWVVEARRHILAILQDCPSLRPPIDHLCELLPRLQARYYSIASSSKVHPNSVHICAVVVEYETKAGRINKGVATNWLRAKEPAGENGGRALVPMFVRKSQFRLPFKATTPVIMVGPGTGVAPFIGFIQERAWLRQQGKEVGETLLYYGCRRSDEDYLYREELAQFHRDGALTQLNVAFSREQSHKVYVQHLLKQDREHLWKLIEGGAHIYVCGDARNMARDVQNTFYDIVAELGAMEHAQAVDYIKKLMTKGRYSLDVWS
Experiment: fluorogenic CYP450 inhibition assay
Format: biochemical
reportedMetric: activity at 0.1 µM

// query What is its activity at 0.1 µM for UniProt:P08684? Entry: CC(=O)N1CCN(c2ccc(OC[C@H]3CO[C@](Cn4ccnc4)(c4ccc(Cl)cc4Cl)O3)cc2)CC1 (relative stereo)
// result < 40%
